Molecular target: Dual specificity protein kinase CLK4 (Homo sapiens) (UniProt Q9HAZ1)
Sequence (Q9HAZ1 whole entry, looked up): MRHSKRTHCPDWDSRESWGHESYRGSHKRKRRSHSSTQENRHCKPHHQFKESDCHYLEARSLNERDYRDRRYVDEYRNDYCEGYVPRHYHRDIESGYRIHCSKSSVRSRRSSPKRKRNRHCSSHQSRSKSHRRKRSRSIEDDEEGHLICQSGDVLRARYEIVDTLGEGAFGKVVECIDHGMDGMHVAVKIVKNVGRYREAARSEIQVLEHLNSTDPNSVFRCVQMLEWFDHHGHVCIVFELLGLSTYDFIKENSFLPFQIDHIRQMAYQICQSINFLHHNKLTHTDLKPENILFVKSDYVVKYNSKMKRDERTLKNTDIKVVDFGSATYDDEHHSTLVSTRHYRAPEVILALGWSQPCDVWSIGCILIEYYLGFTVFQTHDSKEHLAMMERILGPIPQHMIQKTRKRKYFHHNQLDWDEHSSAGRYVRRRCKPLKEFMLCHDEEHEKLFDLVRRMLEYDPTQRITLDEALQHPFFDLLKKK
Assay: Confirmation Assay for Inhibitors of Clk4 (Kinase-Glo Assay): KU probe
Settings: recombinant Clk4, Kinase-Glo ATP luminescence; series mostly up to 76.9 µM
Records with an inconclusive call do not appear. The source made the active and inactive calls. Calls follow the shape of the dose curve; as a rule, active = well fitted inhibition curve with a large enough effect; inconclusive = small, poorly fitted or top-dose-only effect; inactive = flat fitted curve, though single readings scatter.
metric: Potency

1. O=c1cnc2cnc(Nc3ccccc3)nc2n1CCc1ccccc1 = 184 nM (active)
2. c1cc(CNc2ccnc(-c3ccc4c(c3)OCO4)n2)ccn1 = 16400 nM (active)
3. COc1cccc(-c2ccnc(NCc3ccc(Cl)cc3)n2)c1 = 5820 nM (active)
4. Clc1ccc(CNc2cc(-c3ccc4c(c3)OCO4)ncn2)cc1 = 2320 nM (active)
5. c1nc(NCCC2CCCO2)c2cc(-c3ccc4c(c3)OCO4)ccc2n1 (stereo unspecified) = 51.9 nM (active)
6. CCCNc1ncnc2ccc(-c3ccc4c(c3)OCO4)cc12 = 58.2 nM (active)
7. COc1ccc(-c2ccnc(NCc3ccc(Cl)cc3)n2)cc1 = 184 nM (active)
8. Clc1ccc(CNc2nccc(-c3ccc4c(c3)OCO4)n2)cc1Cl = 41.2 nM (active)
9. Fc1cc(CNc2ccnc(-c3ccc4c(c3)OCO4)n2)cc(F)c1F = 23200 nM (active)
10. CCN(C)c1ncnc2ccc(-c3ccc4c(c3)OCO4)cc12 = 36.8 nM (active)
11. O=[N+]([O-])c1cc(Nc2nccc(-c3ccc4c(c3)OCO4)n2)cc(C(F)(F)F)c1 = 104 nM (active)

---

Biological target: Dual specificity protein kinase CLK4 (Homo sapiens) (UniProt Q9HAZ1)
Assay: Confirmation Assay for Inhibitors of Clk4 (Kinase-Glo Assay): KU probe
Conditions: recombinant Clk4, Kinase-Glo ATP luminescence; series mostly up to 76.9 µM
Results filed as inconclusive are left out. The source made the active and inactive calls. The call rests on the fitted dose curve; in most records, active means well fitted inhibition curve with a large enough effect; inconclusive means small, poorly fitted or top-dose-only effect; inactive means flat fitted curve, though single readings scatter.
Outcome codes: active, inactive

1. Clc1ccc(CNc2ccnc(-c3cccnc3)n2)cc1Cl = active
2. c1coc(-c2ccnc(-c3ccc4c(c3)OCO4)n2)c1 = active
3. CN(C)c1ccc(-c2nccc(NCc3cccs3)n2)cc1 = active
4. c1cncc(CNc2nccc(-c3ccc4[nH]ncc4c3)n2)c1 = active
5. COc1ccc(-c2ccnc(NCc3ccc(Cl)c(Cl)c3)n2)cc1OC = active
6. Cc1noc(C)c1-c1nccc(NCc2ccc(Cl)c(Cl)c2)n1 = inactive
7. Clc1ccc(CNc2nccc(-c3ccc4[nH]ncc4c3)n2)cc1Cl = active
8. Brc1cc(Br)cc(CNc2nccc(-c3ccc4c(c3)OCO4)n2)c1 = active
9. Clc1cc(Cl)cc(CNc2cc(-c3ccc4c(c3)OCO4)ncn2)c1 = active
10. c1cncc(CNc2cc(-c3ccc4c(c3)OCO4)ncn2)c1 = active
11. Clc1cc(Cl)cc(CNc2ccnc(-c3ccc4c(c3)OCO4)n2)c1 = active
12. c1ccc(CNc2ccnc(-c3ccc4c(c3)OCO4)n2)cc1 = active
13. Clc1ccc(CNc2cc(-c3ccc4c(c3)OCO4)ncn2)cc1Cl = active
14. COc1ccc(-c2nccc(NCc3ccc(Cl)c(Cl)c3)n2)cc1 = active
15. Clc1ccc(Nc2nccc(-c3ccc4c(c3)OCO4)n2)cc1 = active
16. Cc1c(-c2ccnc(NCc3cccnc3)n2)sc(=O)n1C = active
17. Fc1ccc(CNc2ccnc(-c3ccc4c(c3)OCO4)n2)cc1Br = active
18. CC(=O)c1ccc(-c2ccc3ncnc(NCc4ccc(C)o4)c3c2)o1 = active
19. Clc1ccc(CNc2nccc(-c3ccc4c(c3)OCCO4)n2)cc1Cl = active
20. COc1cccc(-c2ccnc(NCc3ccc(Cl)c(Cl)c3)n2)c1 = active
21. CC(C)(C)CNc1ncnc2ccc(-c3ccc4c(c3)OCO4)cc12 = active
22. Fc1ccc(CNc2ccnc(-c3ccc4c(c3)OCO4)n2)cc1F = active
23. COc1cccc(-c2nccc(NCc3ccc(Cl)cc3)n2)c1 = active

---

Biological target: Dual specificity protein kinase CLK4 (Homo sapiens) (UniProt Q9HAZ1)
Assay: Confirmation Assay for Inhibitors of Clk4 (Kinase-Glo Assay): KU probe
Conditions: recombinant Clk4, Kinase-Glo ATP luminescence; series mostly up to 76.9 µM
Inconclusive results are not listed. Active and inactive are the calls of the source. Calls come from the whole dose curve; as a rule, active = well fitted inhibition curve with a large enough effect; inconclusive = small, poorly fitted or top-dose-only effect; inactive = flat fitted curve, though single readings scatter.
Outcome codes: 1 (yes) = active, 0 (no) = inactive

1. Clc1ccc(CNc2ncncc2-c2ccc3c(c2)OCO3)cc1 = 1 (yes)
2. Cc1ccc(CNc2ccnc(-c3ccc(N(C)C)cc3)n2)cc1 = 0 (no)
3. COc1ccc(-c2ccnc(NCc3ccc(Cl)c(Cl)c3)n2)cc1 = 1 (yes)
4. Brc1cncc(CNc2ccnc(-c3ccc4c(c3)OCO4)n2)c1 = 1 (yes)
5. COc1cccc(-c2ncccn2)c1 = 1 (yes)
6. Fc1cncc(CNc2ccnc(-c3ccc4c(c3)OCO4)n2)c1 = 1 (yes)
7. CN(CC1CCCCC1)c1ncnc2ccc(-c3ccc4c(c3)OCO4)cc12 = 1 (yes)
8. Fc1ccc(CNc2ccnc(-c3ccc4c(c3)OCO4)n2)cc1Cl = 1 (yes)
9. Clc1ccc(CNc2ncncc2-c2ccc3c(c2)OCO3)cc1Cl = 1 (yes)
10. O=C(O)c1ccc(-c2ccc3ncnc(NCC4CCCO4)c3c2)o1 (configuration not stated) = 1 (yes)
11. Nc1ncnc2c1c(I)cn2C1OC(CO)C(O)C1O (configuration not stated) = 1 (yes)
12. c1cc(-c2ccoc2)nc(-c2ccoc2)n1 = 1 (yes)
13. Cc1noc(C)c1-c1nccc(NCc2ccc(Cl)cc2)n1 = 0 (no)
14. COc1cccc(-c2nccc(NCc3ccc(Cl)c(Cl)c3)n2)c1 = 1 (yes)
15. c1nc(NCC2CCCOC2)c2cc(-c3ccc4c(c3)OCO4)ccc2n1 (configuration not stated) = 1 (yes)
16. CN(C)c1ccc(-c2ncccn2)cc1 = 0 (no)
17. Brc1cc(Br)cc(CNc2ccnc(-c3ccc4c(c3)OCO4)n2)c1 = 1 (yes)
